biological target: UniProt:Q9UM07; experiment: RFMS human PAD4 functional assay (rapid-fire mass spectrum); settings: 5 nM hPAD4 enzyme, 250 μM BAEE, 50 μM Calcium; 30 min preincubation, 90 min reaction at 37° C.
Sequence (Q9UM07 whole entry): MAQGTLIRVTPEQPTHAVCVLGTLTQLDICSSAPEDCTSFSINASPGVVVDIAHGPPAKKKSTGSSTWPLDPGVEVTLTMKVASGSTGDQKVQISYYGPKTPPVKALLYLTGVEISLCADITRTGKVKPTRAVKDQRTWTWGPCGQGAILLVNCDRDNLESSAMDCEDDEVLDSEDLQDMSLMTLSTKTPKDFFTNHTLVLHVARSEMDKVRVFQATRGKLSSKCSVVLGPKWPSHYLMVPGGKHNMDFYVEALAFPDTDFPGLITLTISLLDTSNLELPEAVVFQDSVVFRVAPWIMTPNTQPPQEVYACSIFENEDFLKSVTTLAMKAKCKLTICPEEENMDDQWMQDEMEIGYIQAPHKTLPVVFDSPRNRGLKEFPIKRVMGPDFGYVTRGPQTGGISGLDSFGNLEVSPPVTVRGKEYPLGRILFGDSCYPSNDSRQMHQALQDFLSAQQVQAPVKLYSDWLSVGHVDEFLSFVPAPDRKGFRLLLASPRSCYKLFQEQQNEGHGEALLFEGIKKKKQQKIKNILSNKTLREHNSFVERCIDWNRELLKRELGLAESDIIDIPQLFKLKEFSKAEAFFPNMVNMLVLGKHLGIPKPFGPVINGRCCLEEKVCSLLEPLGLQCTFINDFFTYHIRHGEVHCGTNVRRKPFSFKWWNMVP
pIC50: −log10 of the molar value.
value type: pIC50

Observe how each entry below is paired with its result.
molecule	pIC50
CCc1ccccc1-c1nc2cc(C(=O)N3C[C@H]4CC[C@@H]3[C@@H]4N)cc(OC)c2n1CC1CN(c2ccnc(C#N)n2)C1	5.89
COC(=O)Cn1cc(Cn2c(-c3cc4cccnc4n3CC3CC3)nc3cc(C(=O)N4CC5CCC4[C@@H]5N)cc(OC)c32)cn1 (stereo partly drawn)	7.26
COc1cccc(-n2cc(Cn3c(-c4cc5ccccc5n4CC4CC4)nc4cc(C(=O)N5CC6CCC5[C@@H]6N)cc(OC)c43)cn2)n1 (stereo partly drawn)	7.43

P = COc1cc(C(=O)N2CC3CCC2[C@@H]3N)cc2nc(-c3cc4ccccc4n3CC3CC3)n(Cc3cnn(-c4cnc(C#N)c(F)c4)c3)c12 (stereo partly drawn)
Q = COc1cc(C(=O)N2CC3CCC2[C@@H]3N)cc2nc(-c3cc4cccnc4n3CC3CC3)n(C3CN(S(=O)(=O)c4ccc(Cl)nc4)C3)c12 (stereo partly drawn)
Prompt: Pick one, P or Q : lowest reported pIC50. Choose, then provide that item's label.
Completion: Q
(Q: 6.32, P: 7.30)
